tested system: human M2 receptor (Homo sapiens, UniProt P08172)
Sequence (P08172 1-466): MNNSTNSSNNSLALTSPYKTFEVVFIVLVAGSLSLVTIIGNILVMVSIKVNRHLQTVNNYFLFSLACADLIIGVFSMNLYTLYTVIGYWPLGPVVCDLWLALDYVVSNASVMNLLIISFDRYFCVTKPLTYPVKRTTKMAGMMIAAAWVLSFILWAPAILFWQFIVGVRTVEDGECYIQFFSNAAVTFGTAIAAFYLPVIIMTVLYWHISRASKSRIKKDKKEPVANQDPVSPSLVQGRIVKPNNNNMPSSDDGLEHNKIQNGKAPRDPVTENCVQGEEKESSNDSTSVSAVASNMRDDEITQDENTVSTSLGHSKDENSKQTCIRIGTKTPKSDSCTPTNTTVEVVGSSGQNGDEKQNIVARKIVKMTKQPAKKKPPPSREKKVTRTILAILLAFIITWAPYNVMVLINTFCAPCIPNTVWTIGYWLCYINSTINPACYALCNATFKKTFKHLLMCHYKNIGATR
condition parameters: Receptor activity EC50, M2-GIRK1/4 activation test, acetylcholine at EC20; allosteric potency; in some cases mean values from two or more determinations
Threshold 90 nM. EC50 below it: 1. EC50 at it or above: -1.

Illustrative cases are given below, each with its answer.
CC(C)(CC(F)(F)F)NC(=O)c1cn(-c2c(F)cc(F)cc2F)c2nc(N3CCNC3=O)ccc2c1=O : 1
CC[C@H](NC(=O)c1cn(-c2c(F)cc(F)cc2F)c2nc(N3CCCN(CCO)C3=O)ccc2c1=O)C(F)(F)F : 1
CC[C@H](NC(=O)c1cn(-c2ccc(F)cc2F)c2nc(N3C[C@H](O)CC3=O)ccc2c1=O)C(F)(F)F : -1

Q: Problem: For the compound CC(COC(F)(F)F)NC(=O)c1cn(-c2ccc(F)cc2F)c2nc(N3CCCC3)ccc2c1=O (racemic) , is EC50 under 90 nM?
Ans: -1

Q: Problem: For the compound CCC(NC(=O)c1cn(-c2ccc(F)cc2F)c2nc(NCC(F)F)ccc2c1=O)C(F)(F)F (racemic) , is EC50 under 90 nM?
Ans: -1

Q: Problem: For the compound O=C(NC12CC3CC(CC(F)(C3)C1)C2)c1cn(-c2ccc(F)cc2F)c2nc(NCC(F)(F)F)ccc2c1=O , is EC50 under 90 nM?
Ans: 1

Q: Problem: For the compound CN(C)c1ccc2c(=O)c(C(=O)NC(C)(C)C)cn(-c3ccc(F)cc3Cl)c2n1 , is EC50 under 90 nM?
Ans: -1

Q: Problem: For the compound O=C(NC1(C(F)(F)F)CCCC1)c1cn(-c2ccc(F)cc2F)c2nc(NCC(F)(F)F)ccc2c1=O , is EC50 under 90 nM?
Ans: -1

Q: Problem: For the compound O=C(NC(c1c(F)cccc1F)C(F)(F)F)c1cn(-c2ccc(F)cc2F)c2nc(N3CC[C@H](F)C3)ccc2c1=O (single isomer, unassigned) [Example 243] , is EC50 under 90 nM?
Ans: 1

Q: Problem: For the compound CC[C@@H](NC(=O)c1cn(-c2ccc(F)cc2F)c2nc(N3CCC(O)C3=O)ccc2c1=O)C(F)(F)F (single isomer, unassigned) [Example 225] , is EC50 under 90 nM?
Ans: -1

Q: Problem: For the compound CO[C@@H]1CCN(c2ccc3c(=O)c(C(=O)NC(C)(C)c4c(F)cccc4F)cn(-c4ccc(F)cc4F)c3n2)C1 , is EC50 under 90 nM?
Ans: -1

Q: Problem: For the compound C[C@H](NC(=O)c1cn(-c2c(F)cc(F)cc2F)c2nc(N3C[C@@H](O)CC3=O)ccc2c1=O)C(F)(F)F , is EC50 under 90 nM?
Ans: 1

# credit: patent US20190367516A1
